# protocol description: Permeability of compound in human Caco-2 cells
# Assay type: ADME, cell-based
# condition context: read-out: permeability
Numbered stars: 1 amine (or outer) side, 2 acyl side, 3 side chain; on linkers, the order of the positions; unused ones are H or OH. Square brackets hold non-standard residues; d marks the D form. Peptide text beside a SMILES is read from it. * marks the point of attachment. Ava(2S,3R-(OH)2,4S-OMe) = CO[C@@H](CN[*:1])[C@H](O)[C@H](O)C(=O)[*:2]; dHis(βS-OH,π-Me) = Cn1cncc1[C@@H](O)[C@@H](N)C(=O)O; Butanoyl(2R-OH,3S-OH) = C[C@H](O)[C@@H](O)C(=O)*; Val(3-OH) = CC(C)(O)[C@H](N)C(=O)O; NMeF = CN[C@@H](Cc1ccccc1)C(=O)O
quantity name: Papp

Please list Papp recorded for the molecule CO[C@@H](CNC(=O)[C@H](NC(=O)[C@H](O)[C@H](C)O)[C@H](O)c1cncn1C)[C@H](O)[C@H](O)C(=O)N(C)[C@@H](Cc1ccccc1)C(=O)NCC(=O)N[C@H](C(=O)N[C@@H](CO)C(=O)N[C@H](C(=O)N[C@@H](CC(C)C)C(=O)N[C@@H](CO)C(=O)O)C(C)(C)O)C(C)(C)O ({Butanoyl(2R-OH,3S-OH)}-[dHis(βS-OH,π-Me)][Ava(2S,3R-(OH)2,4S-OMe)][NMeF]G[Val(3-OH)]S[Val(3-OH)]LS-OH)
< 10 ×10⁻⁶ cm/s

###

# protocol description: Metabolic stability in mouse kidney assessed as parent compound remaining measured after 4 hrs by UPLC-MS analysis
# Type: ADME, tissue-based
# condition context: read-out: Stability
quantity name: remaining at 4 h (%)
Return type: number; implicit unit %.

Quote remaining at 4 h reported for CO[C@@H](CNC(=O)[C@H](NC(=O)[C@H](O)[C@H](C)O)[C@H](O)c1cncn1C)[C@H](O)[C@H](O)C(=O)N(C)[C@@H](Cc1ccccc1)C(=O)NCC(=O)N[C@H](C(=O)N[C@@H](CO)C(=O)N[C@H](C(=O)N[C@H](C(=O)N[C@@H](CO)C(=O)N[C@@H](CN)C(=O)NCc1cc(=O)c(O)cn1O)C(C)(C)C)C(C)(C)O)C(C)(C)O please.
83

###

# System: Escherichia coli
# protocol description: Antibacterial activity against Escherichia coli ATCC 35218 infected in Swiss albino mouse model of Septicaemia infection assessed as log reduction in Septicaemia in blood at 1 mg/kg , iv preincubated for 4 hrs followed by bacterial infection and measured after 4 hrs post infection
# Type: functional
# condition context: time 8 hrs
quantity name: Activity (log10CFU)
Express your answer in log10CFU, writing the number without its unit.

Some compounds with known Activity results, for comparison:
INSERT INTO results (molecular_string, unit_string, value_observed) VALUES
  ('CO[C@@H](CNC(=O)[C@H](NC(=O)[C@H](O)[C@H](C)O)[C@H](O)c1cncn1C)[C@H](O)[C@H](O)C(=O)N(C)[C@@H](Cc1ccc(F)cc1)C(=O)NCC(=O)N[C@H](C(=O)N[C@@H](CO)C(=O)N[C@H](C(=O)N[C@H](C(=O)N[C@@H](CO)C(=O)NCCN)C(C)(C)C)C(C)(C)O)C(C)(C)O', 'log10CFU', -5.6),
  ('CO[C@@H](CNC(=O)[C@H](NC(=O)[C@H](O)[C@H](C)O)[C@H](O)c1cncn1C)[C@H](O)[C@H](O)C(=O)N(C)[C@@H](Cc1ccccc1)C(=O)NCC(=O)N[C@H](C(=O)N[C@@H](CO)C(=O)N[C@H](C(=O)N[C@H](C(=O)N[C@@H](CC(=O)O)C(=O)N1CCC[C@H]1C(=O)NCc1cc(=O)c(O)cn1O)C(C)(C)C)C(C)(C)O)C(C)(C)O', 'log10CFU', -3.8),
  ('CO[C@@H](CNC(=O)[C@H](NC(=O)[C@H](O)[C@H](C)O)[C@H](O)c1cncn1C)[C@H](O)[C@H](O)C(=O)N(C)[C@@H](Cc1ccc(F)cc1)C(=O)NCC(=O)N[C@H](C(=O)N[C@@H](CO)C(=O)N[C@H](C(=O)N[C@H](C(=O)N[C@@H](CO)C(=O)NCc1cc(=O)c(O)cn1O)C(C)(C)C)C(C)(C)O)C(C)(C)O', 'log10CFU', -5.6),
  ('CO[C@@H](CNC(=O)[C@H](NC(=O)[C@H](O)[C@H](C)O)[C@H](O)c1cncn1C)[C@H](O)[C@H](O)C(=O)N(C)[C@@H](Cc1ccccc1)C(=O)NCC(=O)N[C@H](C(=O)N[C@@H](CO)C(=O)N[C@H](C(=O)N[C@H](C(=O)N[C@@H](CO)C(=O)N[C@@H](CCC(=O)NCc1cc(=O)c(O)cn1O)C(=O)O)C(C)(C)C)C(C)(C)O)C(C)(C)O', 'log10CFU', -3.8);

Note: attention shifts to another entry.
Name the recorded Activity of the compound listed here: CO[C@@H](CNC(=O)[C@H](NC(=O)[C@H](O)[C@H](C)O)[C@H](O)c1cncn1C)[C@H](O)[C@H](O)C(=O)N(C)[C@@H](Cc1ccccc1)C(=O)NCC(=O)N[C@H](C(=O)N[C@@H](CO)C(=O)N[C@H](C(=O)N[C@H](C(=O)N[C@@H](CCC(=O)NCc1cc(=O)c(O)cn1O)C(=O)O)C(C)(C)C)C(C)(C)O)C(C)(C)O
-3.2

The origin of these recorded values is ChEMBL document CHEMBL5356971.
